- Test system: SF-268 CNS
- ASSAY_REMARKS: NCI tumour cell line growth inhibition, 48 h
MEASURED_PROPERTY: TGI

Reference set, count: 3
[[record]]
compound = "NC(N)=N/N=C/c1c(-c2cc([N+](=O)[O-])c(Cl)cc2Cl)nc2n1CCS2"
measured_property = "TGI"
result = "> 100 µM"

[[record]]
compound = "COC(=O)C1(O)C(c2ccccc2)NC2(C)CCCC21 (centres undefined)"
measured_property = "TGI"
result = "> 100 µM"

[[record]]
compound = "Cc1cc(N(CCC#N)CCC#N)ccc1/C(N=Nc1ccc([N+](=O)[O-])cc1)=N\\NC(=O)c1ccccc1"
measured_property = "TGI"
result = "> 100 µM"


Could you now consider this next compound?
*Q* # returns recorded TGI (system: SF-268 CNS) for "C=CCCC(=O)C(=[N+]=[N-])C(=O)CCC(=O)c1ccccc1"
*A* > 10 µM
